This collection of values is drawn from ChEMBL document CHEMBL4765259.

METHOD DESCRIPTION: Half life in Sprague-Dawley rat at 1.5 mg/kg, iv by UPLC/MS analysis
Type: ADME, organism-based
CONDITION LABEL: in vivo
READOUT LABEL: half-life
Respond with the figure and its unit, in that order.

// Input: COc1ccc2cc(C(=O)O[C@H](CC=C(C)C)C3=CC(=O)c4c(O)ccc(O)c4C3=O)oc2c1 . Output its half-life only.
3.81 h

###

Tested on: MCF7
METHOD DESCRIPTION: cells
CONDITION LABEL: Homo sapiens, MCF7, 48 h
Each entry below carries its recorded IC50.
Give your result in nM as a bare value.

Examples with their reported IC50 follow.
SMILES NOTATION | ASSAYED SYSTEM | IC50 (nM)
COc1ccc(/C=C\c2cc(OC)c(OC)c(OC)c2)cc1O | MCF7 | 250
COc1cc2c(c(OC)c1OC)-c1ccc(OC)c(=O)cc1[C@@H](NC(C)=O)CC2 | MCF7 | 110

Now let's try a different one.
// Input: CC(C)=CC[C@@H](O)C1=CC(=O)c2c(O)ccc(O)c2C1=O . Output its IC50 only.
5400

###

METHOD DESCRIPTION: Apparent volume of distribution in Sprague-Dawley rat at 1.5 mg/kg, iv by UPLC/MS analysis
Type: ADME, organism-based
CONDITION LABEL: in vivo, read-out: Vz
READOUT LABEL: Vd (L/kg)
Give your result in L/kg as a bare value.

// Input: COc1ccc2cc(C(=O)O[C@H](CC=C(C)C)C3=CC(=O)c4c(O)ccc(O)c4C3=O)oc2c1 . Output its Vd only.
3.35

###

METHOD DESCRIPTION: Mean residence time (0 to infinity) in Sprague-Dawley rat at 1.5 mg/kg, iv by UPLC/MS analysis
Assay type: ADME, organism-based
CONDITION LABEL: in vivo
READOUT LABEL: MRT inf (h)
Give your result in h as a bare value.

// Input: COc1ccc2cc(C(=O)O[C@H](CC=C(C)C)C3=CC(=O)c4c(O)ccc(O)c4C3=O)oc2c1 . Output its MRT inf only.
5.12

###

System: K562
METHOD DESCRIPTION: Antiproliferative activity against drug resistant human K562 cells incubated for 48 hrs by MTT assay
Assay type: functional, cell-based
CONDITION LABEL: K562, 48 h
READOUT LABEL: pIC50
In plain terms, pIC50 is the concentration in mol/L turned into minus its base-10 logarithm.

Examples with their reported pIC50 follow.
COMPOUND | REPORTED VALUE
COc1cc2c(c(OC)c1OC)-c1ccc(OC)c(=O)cc1[C@@H](NC(C)=O)CC2 [COLCHICINE] | 5.18
CC(C)=CC[C@@H](O)C1=CC(=O)c2c(O)ccc(O)c2C1=O [SHIKONIN] | 3.92
COc1cccc2c1C(=O)c1c(O)c3c(c(O)c1C2=O)C[C@@](O)(C(=O)CO)C[C@@H]3O[C@H]1C[C@H](N)[C@H](O)[C@H](C)O1 [DOXORUBICIN] | 4.79

Now let's try a different one.
// Input: COc1ccc(/C=C\c2cc(OC)c(OC)c(OC)c2)cc1O [COMBRETASTATIN A4] . Output its pIC50 only.
5.21

###

Tested on: HepG2
METHOD DESCRIPTION: Antiproliferative activity against human HepG2 cells incubated for 48 hrs by MTT assay
Format: functional, cell-based
CONDITION LABEL: HepG2, 48 h
Each entry below carries its recorded pIC50.
In plain terms, pIC50 is the concentration in mol/L turned into minus its base-10 logarithm.

COMPOUND | REPORTED VALUE
COc1ccc(/C=C\c2cc(OC)c(OC)c(OC)c2)cc1O [COMBRETASTATIN A4] | 6.57
COc1cc2c(c(OC)c1OC)-c1ccc(OC)c(=O)cc1[C@@H](NC(C)=O)CC2 [COLCHICINE] | 5.83

// Input: CC(C)=CC[C@@H](O)C1=CC(=O)c2c(O)ccc(O)c2C1=O [SHIKONIN] . Output its pIC50 only.
5.53
